experiment: Serum stability of peptide vectors; conditions: bovine, serum
measured.metric: half-life (h)
Number only, in h; omit the unit.

Ask: Supply half-life value. Item: H-RRMKWKK-NH2 [H-Arg-Arg-Met-Lys-Trp-Lys-Lys-NH2]
Result: 3

----------
Recorded half-life values for a group of compounds are listed next.
Assay: Serum stability of peptide vectors
Conditions: bovine, serum
Protocol: Test compounds were dissolved in cell-conditioned tissue culture medium (10% FCS in DMEM) at concentrations varying from 1 to 40 μM. The solutions were incubated at 37° C. and samples were withdrawn at intervals. After filtration, aliquots were analysed by RP-HPLC (using a photodiode array UV detector). Intact vectors were identified by reference to chromatograms obtained with authentic peptides and by DE MALDI-TOF analysis of appropriate peak fractions. […]

{"columns": ["smiles.structure", "half-life"],
 "data": [
  ["CC[C@H](C)[C@H](NC(=O)[C@H](CCCCN)NC(=O)[C@@H](NC(=O)[C@H](CCC(N)=O)NC(=O)[C@@H](N)CCCNC(=N)N)[C@@H](C)CC)C(=O)N[C@@H](Cc1c[nH]c2ccccc12)C(=O)N[C@@H](Cc1ccccc1)C(=O)N[C@@H](CCC(N)=O)C(=O)N[C@@H](CC(N)=O)C(=O)N[C@@H](CCCNC(=N)N)C(=O)N[C@@H](CCCNC(=N)N)C(=O)N[C@@H](CCSC)C(=O)N[C@@H](CCCCN)C(=O)N[C@@H](Cc1c[nH]c2ccccc12)C(=O)N[C@@H](CCCCN)C(=O)N[C@@H](CCCCN)C(N)=O", "> 12 h"]
]}

Now for the compound whose half-life we want.
Ask: Supply half-life value. Item: `CC[C@@H](C)[C@@H](NC(=O)[C@@H](CCCCN)NC(=O)[C@H](NC(=O)[C@@H](CCC(N)=O)NC(=O)[C@H](N)CCCNC(=N)N)[C@H](C)CC)C(=O)N[C@H](Cc1c[nH]c2ccccc12)C(=O)N[C@H](Cc1ccccc1)C(=O)N[C@H](CCC(N)=O)C(=O)N[C@H](CC(N)=O)C(=O)N[C@H](CCCNC(=N)N)C(=O)N[C@H](CCCNC(=N)N)C(=O)N[C@H](CCSC)C(=O)N[C@H](CCCCN)C(=O)N[C@H](Cc1c[nH]c2ccccc12)C(=O)N[C@H](CCCCN)C(=O)N[C@H](CCCCN)C(N)=O`
Result: > 24 h

Hello, the source for this data is patent US6992169B2, in case you need it.
